- assay procedure: Inhibition of binding of [125I]-CCK-8 to the cholecystokinin type B receptor
Binarize IC50 at 30 nM; below is fulfilled, at or above is not fulfilled.

INSERT INTO assay_data (compound, label) VALUES
  ('Cc1cccc(NC(=O)NC2N=C(c3ccccc3)c3ccccc3N(CCOC(=O)CCC(=O)O)C2=O)c1 (centres undefined)', 'fulfilled');

Now examine the next entry.
Input line: Identify whether the compound Cc1cc(C)cc(NC(=O)NC2N=C(c3ccccc3)c3ccccc3N(C)C2=O)c1 (centres undefined) records IC50 below 30 nM.
Output line: not fulfilled

====

- assay procedure: Inhibition of binding of [125I]-CCK-8 to the cholecystokinin type B receptor
observation type: IC50 (nM)
Give bare numbers, in nM.

Completed entries (count: 5):
INSERT INTO results (molecule, reported) VALUES
  ('CN1C(=O)C(NC(=O)Nc2ccc([N+](=O)[O-])cc2)N=C(c2ccccc2)c2ccccc21 (centres undefined)', 46),
  ('CN1C(=O)C(NC(=O)Nc2ccc(Cl)c(Cl)c2)N=C(c2ccccc2)c2ccccc21 (centres undefined)', 67),
  ('Cc1cccc(NC(=O)NC2N=C(c3ccncc3)c3ccccc3N(C)C2=O)c1 (centres undefined)', 52),
  ('CCNC(=O)CN1C(=O)C(NC(=O)Nc2ccc(Cl)cc2)N=C(c2ccccc2)c2ccccc21 (centres undefined)', 11),
  ('O=C(O)CN1C(=O)C(NC(=O)Nc2ccc(Cl)cc2)N=C(c2ccccc2)c2ccccc21 (centres undefined)', 72);

I would be grateful if you could provide IC50 for each of the following entries.
1. COc1cccc(NC(=O)NC2N=C(c3ccccc3)c3ccccc3N(CC(=O)N3CCCC3)C2=O)c1 (centres undefined)
2. CCOC(=O)CN1C(=O)C(NC(=O)c2ccccc2Cl)N=C(c2ccccc2F)c2ccccc21 (centres undefined)
3. COc1ccccc1NC(=O)NC1N=C(c2ccccc2)c2ccccc2N(C)C1=O (centres undefined)

Output line:
1: 0.24; 2: 3200; 3: 1200
